tested on: Human papillomavirus type 1a E7 protein (residues 1-88); experiment: HPV1a E7 small-molecule binders, primary screen, biochemical, small-molecule microarray, residues 1-88, 635 nm (AID 1129); settings: small-molecule microarray binding, fluorescence 635 nm; higher = more signal
Quick rule: composite z-score of at least 0.6 means 1.0, below that means 0.0.

Use the examples below as a reference point.
compound="Cc1cc2c(nc1C)CCCCN2CC(O)CN1CCCc2nc(-c3ccc(Br)cc3)ccc21 (stereo not given)" answer_label=0.0
compound=CCOC(=O)CCN1C(=O)[C@H]2[C@H]3[C@H](O)[C@H](O)CC(=NNC(=O)OCc4ccc(OC)cc4)[C@H]3CC[C@H]2C1=O answer_label=0.0
compound=CSCC[C@@H]1NC(=O)CC=C[C@@H](C)COC(=O)[C@H](C)COC1=O answer_label=0.0
compound=CC(=O)OC[C@H]1O[C@H](CC=NOC[C@@H](O)[C@H]2O[C@@H]3OC(C)(C)O[C@@H]3[C@H]2O)C=C[C@@H]1OC(C)=O answer_label=1.0

Continue with the next compound.
hey, is composite z-score for this one >= 0.6? O=C1CCCC=C1C(O)COCc1ccccc1 (stereo not given)
0.0

====

assay: MM1S myeloma cell viability, profiling panel, resazurin fluorescence, basal, 24 h, PK04 Diversity Set (AID 1174); settings: higher = more signal, called active from +8 up or from −8 down;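 note: MM1S multiple myeloma cell line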
MEASUREMENT_NAME: z-score
Give bare numbers.

State recorded z-score for all listed compounds.
1. CC(CCC(=O)OC[C@H]1O[C@H](C#Cc2ccccc2)C=C[C@@H]1Oc1ccc(C)cc1)=NOC(C)CN1CCCCc2nc(C)c(C)cc21 (stereo partly specified)
2. O=C1C=C[C@@H](O)[C@@H]2[C@@H]3C(=O)N(Cc4ccc5c(c4)OCO5)C(=O)[C@@H]3CC[C@@H]12

[-0.0229, 0.966]

====

system: XIP peptide (Xip251-270); assay: small-molecule binders of XIP peptide, primary screen, biochemical, small-molecule microarray, fluorescence 635/667 nm, 0.5 µg/mL protein (AID 1183); conditions: small-molecule microarray binding, fluorescence 635 nm; higher = more signal
Could you please report measured composite z-score for the items listed next?
Answers are plain numbers.

compound=COC(=O)CC=C[C@@H](C)[C@@H](C=NOC[C@@H](O)COCc1ccco1)NS(=O)(=O)c1ccc(C)cc1 measurement_name="composite z-score" measurement=0.239
compound="CCOC(=O)[C@H](Cc1ccccc1)NC(=O)CCC1CC(OC(=O)NCCc2ccc(F)cc2)CC2(CCCC(COC(=O)NCCOc3ccccc3)O2)O1 (some centres undefined)" measurement_name="composite z-score" measurement=0.401
compound=O=C1[C@H]2[C@H]3[C@H](O)[C@H](O)CC(=NOC[C@@H](O)COCc4ccco4)[C@@H]3CC[C@H]2C(=O)N1Cc1ccc2c(c1)OCO2 measurement_name="composite z-score" measurement=0.265

Pending compound:
So, C[C@@H](c1ccccc1)N1C(=O)[C@H]2[C@H]3[C@H](O)[C@H](O)CC(=NNC(=O)OCc4ccccc4)[C@@H]3CC[C@H]2C1=O ? Its composite z-score was 0.209

====

Give measured composite z-score for each item. Keep answers brief.
system: XIP peptide (Xip251-270); assay: small-molecule binders of XIP peptide, primary screen, biochemical, small-molecule microarray, fluorescence 635/667 nm, 0.5 µg/mL protein (AID 1183); details: small-molecule microarray binding, fluorescence 635 nm; higher = more signal
Answers are plain numbers.

Sample answers from the record:
compound=CO[C@H]1COC(=O)[C@H](CCSC)NC(=O)CC=C[C@@H](C)[C@H](OC)COC(=O)[C@@H](OCc2ccccc2)C=C[C@@H]1C measurement=0.358
compound=O=C(NN=C1C[C@@H](O)[C@@H](O)[C@@H]2[C@@H]3C(=O)N(c4ccc(F)cc4F)C(=O)[C@@H]3CC[C@H]12)OCc1ccccc1 measurement=0.653
compound="O=C(NCCC[N+]1=CC=NC1c1ccccc1)N1CCCc2nc(-c3ccc(Br)cc3)ccc21 (stereo not drawn)" measurement=0.0388

Items follow; give composite z-score for each.
1. CCOC(=O)CCN1C(=O)[C@H]2[C@H]3[C@H](O)[C@H](O)CC(=NNC(=O)OCc4ccc(OC)cc4)[C@H]3CC[C@H]2C1=O
2. Cc1cc2c(nc1C)CCCCN2CC(O)CN1CCCc2nc(-c3ccc(Br)cc3)ccc21 (stereo not drawn)
3. COc1ccc(-c2cnnc(CCCn3ccnc3-c3ccccc3)n2)cc1
4. CCOC(=O)NN=C1C[C@@H](O)[C@@H](O)[C@@H]2[C@@H]3C(=O)N(c4ccc(F)cc4F)C(=O)[C@@H]3CC[C@H]12
5. O=C1C[C@@H](O)[C@@H](O)[C@@H]2[C@@H]3C(=O)N(c4ccc(F)cc4F)C(=O)[C@@H]3CC[C@H]12

1. 0.277
2. 0.0985
3. 0.492
4. -0.119
5. -0.0234
